Molecular target: HLA-DR DRB3*0101 (human)
Assay: radioligand inhibition, purified HLA-DR

Binder	IC50
FRELVSEFSRMARDP [Peptide 9019.0096]	4.54 µM
